tested on: HepG2; test: cell viability relative to DMSO; higher = less toxic; conditions: 72 h; 10000 nM
Attribute: cell viability
Supply the numeric figure in %, leaving out any unit text.

Below: 4 molecules and their reported cell viability.
- MOLECULE: "CCCCCCCCCCCCCCCC(=O)OC[C@@H](NC(=O)C(Cl)Cl)[C@H](O)c1ccc([N+](=O)[O-])cc1 [chloramphenicol-palmitate]"
  cell viability, %: 88.6
- MOLECULE: "C/C(O)=C(\\C#N)C(=O)Nc1ccc(C(F)(F)F)cc1 [teriflunomide]"
  cell viability, %: 94.4
- MOLECULE: "CN(C(=O)CN1C(=O)COc2cc(Cl)c(Cl)cc21)[C@@H](CN1CCCC1)c1ccc(-c2cccc(C(N)=O)c2)cc1"
  cell viability, %: 10.5
- MOLECULE: "C#CCOC(=O)C1=CCCN(C)C1"
  cell viability, %: 102

Task item: Query (molecule): "O=C(O)[C@@H]1C[C@@H](C2CCCCC2)CN1C(=O)CP(=O)(O)CCCCc1ccccc1" ; field requested: cell viability
Reply: 101

Task item: Item "CC(C)Nc1cccnc1N1CCN(C(=O)c2cc3cc(NS(C)(=O)=O)ccc3[nH]2)CC1" has what recorded cell viability?
Reply: 107

Task item: Which value of cell viability has been reported for CCOC(=O)c1ccc(OC(=O)CCCCCNC(=N)N)cc1 [gabexate] in the records?
Reply: 103
